Would you mind telling me the reported inhibition of each entry?
Tested on: Mast/stem cell growth factor receptor Kit (Homo sapiens), P10721 [V560G]
Sequence (P10721 whole entry V560G): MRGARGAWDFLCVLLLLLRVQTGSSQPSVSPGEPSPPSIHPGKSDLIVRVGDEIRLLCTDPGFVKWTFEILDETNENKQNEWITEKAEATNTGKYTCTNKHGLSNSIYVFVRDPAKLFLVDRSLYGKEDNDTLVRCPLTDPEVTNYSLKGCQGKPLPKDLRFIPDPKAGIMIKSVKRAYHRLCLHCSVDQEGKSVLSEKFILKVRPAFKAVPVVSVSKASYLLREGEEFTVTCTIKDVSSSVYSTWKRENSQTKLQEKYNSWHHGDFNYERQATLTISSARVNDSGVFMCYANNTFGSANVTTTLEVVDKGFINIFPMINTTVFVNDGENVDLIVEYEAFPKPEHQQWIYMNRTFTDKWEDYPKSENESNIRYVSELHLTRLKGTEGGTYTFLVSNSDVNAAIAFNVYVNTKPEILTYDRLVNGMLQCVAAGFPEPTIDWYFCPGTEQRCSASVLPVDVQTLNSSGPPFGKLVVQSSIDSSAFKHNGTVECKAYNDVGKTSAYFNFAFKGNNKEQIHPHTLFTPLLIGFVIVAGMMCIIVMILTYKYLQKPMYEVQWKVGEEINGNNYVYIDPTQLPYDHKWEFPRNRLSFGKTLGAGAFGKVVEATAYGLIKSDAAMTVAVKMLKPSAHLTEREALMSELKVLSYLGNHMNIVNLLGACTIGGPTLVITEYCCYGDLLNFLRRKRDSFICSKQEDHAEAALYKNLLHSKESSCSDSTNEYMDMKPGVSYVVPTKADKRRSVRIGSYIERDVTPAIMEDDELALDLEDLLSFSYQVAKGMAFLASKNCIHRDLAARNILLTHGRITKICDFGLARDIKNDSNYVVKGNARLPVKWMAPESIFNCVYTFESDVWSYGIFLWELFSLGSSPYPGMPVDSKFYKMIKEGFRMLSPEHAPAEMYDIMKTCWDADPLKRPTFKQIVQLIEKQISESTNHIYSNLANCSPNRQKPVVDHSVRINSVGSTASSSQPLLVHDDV
setupConditions: at 0.1 µM
Field: numeric (%). Do not append units.

Inquiry: Entry "CCn1c(-c2nonc2N)nc2ccncc21" : reported inhibition = ?
Reply text: -0.14

Inquiry: Need inhibition of "COc1cc2ncn(-c3cc(OCc4ccccc4C(F)(F)F)c(C(N)=O)s3)c2cc1OC" , thanks.
Reply text: -1.78

Inquiry: Given "CCn1c(-c2nonc2N)nc2c(N3CCCC3)nccc21" , state its recorded inhibition.
Reply text: -0.78

Inquiry: Entry "Cc1nnc(-c2ccc(C)c(-c3ccc(C(=O)Nc4cccc(C#N)c4)cc3)c2)o1" has what inhibition?
Reply text: 0.81

Inquiry: Which inhibition value is on record for "NCc1ccc(-c2nc(-c3ccc(Cl)c(O)c3)c(-c3ccncc3)[nH]2)cc1" ?
Reply text: 1.37

Inquiry: So what does the record say about inhibition for "COc1cc(C)c(NC(=O)CN(C)C)cc1Nc1nc(Nc2cccc(F)c2C(N)=O)c2cc[nH]c2n1" ?
Reply text: 0.02

Inquiry: Report inhibition for "CCN1CCC(CC(=O)Nc2n[nH]c3nc(-c4cccs4)c(Br)cc23)CC1" please.
Reply text: 3.05

Inquiry: Quick one: inhibition for COc1ccc2cc(-c3c(-c4ccncc4)nc(-c4ccc([S+](C)[O-])cc4)n3C)ccc2c1 (configuration not stated) ?
Reply text: 2.62

Inquiry: So what's the measured inhibition for this one? "N#Cc1c(NC(=O)c2cccc3ccccc23)sc2c1CCCC2"
Reply text: -1.27

Inquiry: Requested field: inhibition. Item: "CC(=O)Nc1cccc(C#Cc2cncnc2Nc2ccc(OCc3cccc(F)c3)c(Cl)c2)n1"
Reply text: 2.08

Inquiry: Which inhibition is reported for this compound? "CNC(=O)c1cncc(/C=C/c2c(Cl)cccc2Cl)c1"
Reply text: -1.49

Inquiry: Entry under review: CC1=C(C(=O)Nc2ccc3[nH]ncc3c2)C(c2ccc(F)cc2)NC(=O)N1 (configuration not stated) . Reported inhibition?
Reply text: -1.67

Inquiry: Look at this compound and give its reported inhibition. "Nc1ncnc2occ(-c3ccc(NC(=O)Nc4cc(C(F)(F)F)cc(C(F)(F)F)c4)cc3)c12"
Reply text: 33.8

Inquiry: Need inhibition, item "Fc1cccc(COc2ccc(Nc3ncnc4sc(-c5cccs5)cc34)cc2Cl)c1"
Reply text: 4.3

Inquiry: What value of inhibition has been reported for the following compound? "CC(C)=Cc1cccc2c1/C(=N/Nc1ccc(S(N)(=O)=O)cc1)C(=O)N2"
Reply text: 4.73

Inquiry: Please give the measured inhibition for this compound: "CS(=O)(=O)CCNCc1nc(-c2ccc3ncnc(Nc4ccc(F)c(Cl)c4)c3c2)cs1"
Reply text: 10.4

Inquiry: inhibition lookup needed for "Fc1cccc(COc2ccc(Nc3ncnc4cc(-c5ccc[nH]5)sc34)cc2Cl)c1" , thanks.
Reply text: 0.61

The values you see were collected from ChEMBL document CHEMBL1961873.
